Hi there, I'd appreciate the recorded Test C disease rating (100 = 100% disease control, 0 = no disease control) for every entry that follows.
- Test system: Phytophthora infestans
- ASSAY PROCEDURE: whole plant or invertebrate
- Assay type: in vivo
- CONDITION PARAMETERS: tomato late blight; spray the day before inoculation; compounds without asterisk (not 40 or 10 ppm)
Numbers only, in %.

{"columns": ["SMILES REPRESENTATION", "OBSERVED VALUE"],
 "data": [
  ["C[C@H](c1ccccc1)N(C)C(=O)c1csc(C2CCN(C(=O)Cc3cc(Cl)ccc3Br)CC2)n1", 99],
  ["Cc1cc(C(C)C)nn1CC(=O)N1CCC(c2nc(C(=O)N(C)[C@H](C)c3ccccc3)cs2)CC1", 92],
  ["C[C@H](c1ccccc1)N(C)C(=O)c1csc(C2CCN(C(=O)Cc3cc(F)cc(C(F)(F)F)c3)CC2)n1", 60]
]}

Pending compound:
Exercise: Quick one: Test C disease rating (100 = 100% disease control, 0 = no disease control) of C[C@H](c1ccccc1)N(C)C(=O)c1csc(C2CCN(C(=O)Cc3cccs3)CC2)n1 ?
Key: 33
